maximum AR degradation Dmax: recorded values
targetOrSystem: AR (Homo sapiens, UniProt P10275+P40337, T878A)
Construct: degradation Dmax of AR in LNCaP cells; endogenous in cells; host or cells: LNCaP
Sequence (Q15370 whole entry): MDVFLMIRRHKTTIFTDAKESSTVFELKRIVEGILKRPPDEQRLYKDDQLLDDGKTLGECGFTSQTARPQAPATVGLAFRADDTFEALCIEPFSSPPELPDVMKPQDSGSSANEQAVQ
Sequence (P40337 whole entry): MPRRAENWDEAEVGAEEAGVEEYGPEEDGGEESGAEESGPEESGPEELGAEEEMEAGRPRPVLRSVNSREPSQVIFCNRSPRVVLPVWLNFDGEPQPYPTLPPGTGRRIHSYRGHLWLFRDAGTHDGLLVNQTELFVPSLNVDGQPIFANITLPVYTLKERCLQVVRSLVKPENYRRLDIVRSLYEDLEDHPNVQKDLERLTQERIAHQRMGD
Sequence (P10275 whole entry T878A): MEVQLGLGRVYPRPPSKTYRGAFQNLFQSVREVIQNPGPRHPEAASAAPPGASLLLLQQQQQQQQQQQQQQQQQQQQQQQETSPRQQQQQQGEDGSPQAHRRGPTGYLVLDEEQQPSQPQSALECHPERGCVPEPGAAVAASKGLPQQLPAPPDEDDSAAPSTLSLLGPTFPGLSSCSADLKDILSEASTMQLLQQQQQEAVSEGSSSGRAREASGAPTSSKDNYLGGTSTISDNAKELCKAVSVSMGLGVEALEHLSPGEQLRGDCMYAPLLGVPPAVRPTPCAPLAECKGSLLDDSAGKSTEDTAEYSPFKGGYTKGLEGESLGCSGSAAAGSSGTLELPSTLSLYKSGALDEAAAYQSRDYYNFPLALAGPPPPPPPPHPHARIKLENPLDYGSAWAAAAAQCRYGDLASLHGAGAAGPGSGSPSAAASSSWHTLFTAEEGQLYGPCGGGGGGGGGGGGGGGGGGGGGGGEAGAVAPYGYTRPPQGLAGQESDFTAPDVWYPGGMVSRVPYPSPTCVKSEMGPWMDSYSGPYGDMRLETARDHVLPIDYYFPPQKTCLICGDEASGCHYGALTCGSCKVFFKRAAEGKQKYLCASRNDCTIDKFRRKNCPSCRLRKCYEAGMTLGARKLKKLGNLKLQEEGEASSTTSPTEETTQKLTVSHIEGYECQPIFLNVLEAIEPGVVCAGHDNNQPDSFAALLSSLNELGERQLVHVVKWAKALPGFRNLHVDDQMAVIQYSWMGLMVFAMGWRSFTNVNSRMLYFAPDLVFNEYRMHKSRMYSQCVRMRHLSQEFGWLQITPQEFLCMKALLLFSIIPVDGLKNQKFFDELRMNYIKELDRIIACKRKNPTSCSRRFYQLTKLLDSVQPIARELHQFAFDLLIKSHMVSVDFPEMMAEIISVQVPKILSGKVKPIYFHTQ
Sequence (Q15369 whole entry, further chain): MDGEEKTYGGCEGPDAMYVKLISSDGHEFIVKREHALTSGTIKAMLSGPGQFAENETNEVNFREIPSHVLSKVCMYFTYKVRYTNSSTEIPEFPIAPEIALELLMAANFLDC
assayDetails: AR degradation in LNCaP cells (androgen receptor ELISA)
Format: cell-based
conditionParameters: LNCaP cells
Protocol: The connector linking the AR-binding warhead and the VHL-binding warhead was systematically probed from 4 to 23 atoms. The AR degradation potency DC50 and the maximum percentage of degradation Dmax of AR in LNCaP cells were measured for each of these compounds. […] The binary binding potency with respect to AR was also measured for some of the compounds by the cell-based ligand (R1881) displacement assay. […]
propertyLabel: maximum AR degradation Dmax (%)

• Cc1ncsc1-c1ccc(CNC(=O)[C@@H]2C[C@@H](O)CN2C(=O)[C@@H](NC(=O)COCCOCCCOc2ccc(N3C(=S)N(c4ccc(C#N)c(C(F)(F)F)c4)C(=O)C3(C)C)cc2)C(C)(C)C)cc1 [Compound 6] = 54
• Cc1ncsc1-c1ccc(CNC(=O)[C@@H]2C[C@@H](O)CN2C(=O)[C@@H](NC(=O)COCCOCCOCCCCCOc2ccc(N3C(=S)N(c4ccc(C#N)c(C(F)(F)F)c4)C(=O)C3(C)C)cc2)C(C)(C)C)cc1 [Compound 11] = 60

From: patent US12569464B2
